- System: Fibroblast
- EXPERIMENT_DESCRIPTION: Multiplex assay against human fibroblast
- Format: toxicity, cell-based
- REPORTED_CONDITIONS: 12 h, 1 µM, compound concentration 1 uM, replicate 2
MEASUREMENT_NAME: Population Fragmented Nuclei (%)
Your answer is read as %, so omit the unit and give the number.

Consider the following illustrative entries.
* O=C(CCCc1ccccc1)Nc1nc2ccccc2c(=O)s1 | 19
* CC(=O)Nc1cccc2c1c(Sc1ccc(Cl)cc1)c(C)n2CC(=O)O | 31
* Cc1sc2c(c1C)C(c1ccc(Cl)cc1)=N[C@@H](CC(=O)NCCCCCCCCNC(=O)COc1cccc3c1C(=O)N(C1CCC(=O)NC1=O)C3=O)c1nnc(C)n1-2 (stereo not given in full) | 34
* N#Cc1cc(F)cc(-c2nc(-c3ccc(F)cn3)no2)c1 | 32

// moving on: another record for Population Fragmented Nuclei (%)
GET /value?item= CCCOc1ccc2[nH]cc(C3=CCNCC3)c2n1.Cl &field=Population Fragmented Nuclei (%) returns 25
